Attribution: patent US11084818B2

Provide the reported EC50 of each item.
assay_system: hTLR7 (Homo sapiens, UniProt Q9NYK1)
Sequence (Q9NYK1 27-1049): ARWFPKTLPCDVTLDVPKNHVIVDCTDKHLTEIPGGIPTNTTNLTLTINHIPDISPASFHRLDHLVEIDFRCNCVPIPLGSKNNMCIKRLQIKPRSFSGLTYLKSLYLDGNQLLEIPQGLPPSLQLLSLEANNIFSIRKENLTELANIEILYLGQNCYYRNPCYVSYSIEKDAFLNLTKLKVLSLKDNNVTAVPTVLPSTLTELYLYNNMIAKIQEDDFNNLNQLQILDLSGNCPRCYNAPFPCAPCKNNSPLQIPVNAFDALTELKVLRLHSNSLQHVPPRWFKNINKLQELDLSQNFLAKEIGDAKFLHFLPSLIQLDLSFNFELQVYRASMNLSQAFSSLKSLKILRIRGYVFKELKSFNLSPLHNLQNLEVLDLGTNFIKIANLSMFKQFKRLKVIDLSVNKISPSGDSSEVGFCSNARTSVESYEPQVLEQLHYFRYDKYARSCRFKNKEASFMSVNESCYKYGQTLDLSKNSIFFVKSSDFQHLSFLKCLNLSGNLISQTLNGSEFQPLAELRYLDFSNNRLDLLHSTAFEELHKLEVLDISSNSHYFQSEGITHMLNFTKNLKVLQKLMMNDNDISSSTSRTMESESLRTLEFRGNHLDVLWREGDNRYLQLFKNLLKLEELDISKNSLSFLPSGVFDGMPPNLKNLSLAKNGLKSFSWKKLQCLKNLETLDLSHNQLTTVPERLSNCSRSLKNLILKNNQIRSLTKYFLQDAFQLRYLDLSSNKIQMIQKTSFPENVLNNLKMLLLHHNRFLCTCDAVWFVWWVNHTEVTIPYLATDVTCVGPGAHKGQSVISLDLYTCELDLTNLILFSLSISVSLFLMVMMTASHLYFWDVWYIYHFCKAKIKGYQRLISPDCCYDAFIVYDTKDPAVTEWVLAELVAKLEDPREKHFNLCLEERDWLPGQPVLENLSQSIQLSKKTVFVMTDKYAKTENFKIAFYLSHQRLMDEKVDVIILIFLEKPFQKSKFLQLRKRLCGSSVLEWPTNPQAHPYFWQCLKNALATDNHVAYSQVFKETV
assay_comment: Activation activity test of hTLR7 (HEK-Blue hTLR7 cells, QUANTI-Blue OD650)
measurement_context: 24 hours incubation, read-out: TLR7 (EC50)

>  <smiles_input>
COCCOc1ncc2[nH]c(=O)n(Cc3ccc(CN4CCCCC4)cc3)c2n1

>  <result>
1 to 10 µM

$$$$
>  <smiles_input>
COCCOc1ncc2[nH]c(=O)n(Cc3ccc(CN4C5CCC4CC5)cc3)c2n1

>  <result>
1 to 10 µM

$$$$
>  <smiles_input>
COCCOc1ncc2nc(C)n(Cc3ccc(CN4CCCC4)cc3)c2n1

>  <result>
> 100 µM

$$$$

Each of the following entries comes with a recorded value; kindly state EC50 for each.
1. COCCOc1ncc2[nH]c(=O)n(Cc3cccc(CN4CCCCCC4)c3)c2n1
2. CCOCCOc1ncc2[nH]c(=O)n(Cc3ccc(CN4CCCC4)cc3)c2n1
3. COCCOc1ncc2[nH]c(=O)n(Cc3ccc(CN4C[C@H]5CN(C)C[C@H]5C4)cc3)c2n1

1: 10 to 100 µM; 2: 1 to 10 µM; 3: 1 to 10 µM

Each of the following entries comes with a recorded value; kindly state EC50 for each.
1. O=c1[nH]c2cnc(OCCCOC(F)(F)F)nc2n1Cc1ccc(CN2CCCC2)cc1
2. COCCOc1ncc2[nH]c(=O)n(Cc3ccc(CN4CCCCCC4)cc3)c2n1
3. O=c1[nH]c2cnc(OCCOC(F)(F)F)nc2n1Cc1ccc(CN2CC=CC2)cc1

["0.001 to 1 µM", "1 to 10 µM", "0.001 to 1 µM"]

###

Provide the reported EC50 of each item.
assay_system: hTLR7 (Homo sapiens, UniProt Q9NYK1)
assay_comment: Activation activity test of hTLR7 (HEK-Blue hTLR7 cells, QUANTI-Blue OD650)
measurement_context: 24 hours incubation, read-out: TLR7 (EC50)

// worked examples, EC50 included
>  <smiles_input>
COCCOc1ncc2[nH]c(=O)n(Cc3ccc([C@@H](C)N4CCCC4)cc3)c2n1

>  <EC50>
0.001 to 1 µM

$$$$
>  <smiles_input>
COCCOc1cc2c(cn1)[nH]c(=O)n2Cc1ccc(CN2CCCC2)cc1

>  <EC50>
10 to 100 µM

$$$$
>  <smiles_input>
COCCOc1ncc2[nH]c(=O)n(CCc3ccc(CN4CCCC4)cc3)c2n1

>  <EC50>
> 100 µM

$$$$
>  <smiles_input>
COCCOc1ncc2[nH]c(=O)n(Cc3ccc(CN4CC[C@@H](F)C4)cc3)c2n1

>  <EC50>
1 to 10 µM

$$$$
>  <smiles_input>
COCCOc1ncc2[nH]c(=O)n(Cc3ccc(CN4CCC[C@@H]4C(=O)OC)cc3)c2n1

>  <EC50>
10 to 100 µM

$$$$
>  <smiles_input>
COCCOc1nc(C)c2[nH]c(=O)n(Cc3ccc(CN4CCCC4)cc3)c2n1

>  <EC50>
> 100 µM

$$$$
>  <smiles_input>
COCCOc1ncc2[nH]c(=O)n(Cc3ccc(CN4CCCC4)cc3F)c2n1

>  <EC50>
1 to 10 µM

$$$$

Turning now to a further molecule:
Given the molecule COCCOc1ncc2[nH]c(=S)n(Cc3ccc(CN4CCCC4)cc3)c2n1 , what is its reported EC50? > 100 µM
